molecular target: human histamine H3 receptor (hH3R) (Homo sapiens, UniProt Q9Y5N1); construct: expressed in transfected cells; test: radioligand displacement binding assay, [3H]Nα-methylhistamine, HEK293 cells stably expressing hH3R; settings: HEK293 cells stably expressing human H3R, mean (95% CI)
Sequence (Q9Y5N1 whole entry): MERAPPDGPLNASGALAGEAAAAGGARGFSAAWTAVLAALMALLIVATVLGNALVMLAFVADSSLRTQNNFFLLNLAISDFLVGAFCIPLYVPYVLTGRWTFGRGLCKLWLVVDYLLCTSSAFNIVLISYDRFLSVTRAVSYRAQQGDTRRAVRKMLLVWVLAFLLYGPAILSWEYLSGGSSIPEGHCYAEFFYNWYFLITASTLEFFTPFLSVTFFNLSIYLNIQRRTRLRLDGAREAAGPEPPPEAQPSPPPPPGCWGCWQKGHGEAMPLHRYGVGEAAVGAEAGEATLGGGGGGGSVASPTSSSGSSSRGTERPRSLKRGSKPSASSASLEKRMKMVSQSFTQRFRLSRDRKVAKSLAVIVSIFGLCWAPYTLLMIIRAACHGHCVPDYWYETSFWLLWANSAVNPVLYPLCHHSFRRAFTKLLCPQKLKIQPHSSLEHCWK
PARAMETER MEASURED: Ki (nM)
All answers are understood in nM, so give the number only.

Example compounds with recorded Ki:
CC1CCCCN1CCCCCOc1ccc(C(C)(C)C)cc1.O=C(O)C(=O)O (stereo not drawn)
1560
CC1CCCN(CCCOc2ccc(C(C)(C)C)cc2)C1.O=C(O)C(=O)O (stereo not drawn)
98

Moving on to another compound below.
# input Provide one value: measured Ki of CC1CC(C)CN(CCCCCOc2ccc(C(C)(C)C)cc2)C1.O=C(O)C(=O)O (stereo not drawn)
# output 2240

====

pIC50 by entry:
Target sequence: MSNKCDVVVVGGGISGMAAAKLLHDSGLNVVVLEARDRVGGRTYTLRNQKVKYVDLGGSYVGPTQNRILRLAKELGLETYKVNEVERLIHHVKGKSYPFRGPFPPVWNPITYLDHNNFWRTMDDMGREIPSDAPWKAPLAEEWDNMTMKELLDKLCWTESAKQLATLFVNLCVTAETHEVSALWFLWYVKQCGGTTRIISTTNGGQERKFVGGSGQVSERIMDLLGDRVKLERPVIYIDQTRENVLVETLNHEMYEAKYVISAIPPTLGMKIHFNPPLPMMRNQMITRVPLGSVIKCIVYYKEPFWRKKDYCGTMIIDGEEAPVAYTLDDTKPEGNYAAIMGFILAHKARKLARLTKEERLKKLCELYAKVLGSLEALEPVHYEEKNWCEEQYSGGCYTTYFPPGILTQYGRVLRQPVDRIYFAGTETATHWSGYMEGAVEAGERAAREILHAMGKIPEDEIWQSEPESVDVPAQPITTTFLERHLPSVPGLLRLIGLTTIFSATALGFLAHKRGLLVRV
Bear in mind: pIC50 is minus log10 of a mol/L concentration; give just that figure.

Example compounds with recorded pIC50:
CC1CCCCN1CCCCOc1ccc(C(C)(C)C)cc1.O=C(O)C(=O)O (centres unmarked) [Compound 10]
6.32
CC(C)(C)c1ccc(OCCCN2CCCC2)cc1.O=C(O)C(=O)O [Compound 5]
8.57
CC1(C)CCCN(CCCOc2ccc(C(C)(C)C)cc2)C1.O=C(O)C(=O)O [Compound 16]
6.32

# input Provide one value: measured pIC50 of CC1CCCCN1CCCOc1ccc(C(C)(C)C)cc1.O=C(O)C(=O)O (centres unmarked) [Compound 9]
# output 7.96

# input Provide one value: measured pIC50 of CC(C)(C)c1ccc(OCCCN2CCCCC2)cc1 [DL76]
# output 7.32

====

PARAMETER MEASURED: melting point

Example molecules with recorded melting point:
CC1CCCCN1CCCOc1ccc(C(C)(C)C)cc1.O=C(O)C(=O)O (stereo not drawn)
114 to 116 °C
CC1(C)CCCN(CCCCCOc2ccc(C(C)(C)C)cc2)C1.O=C(O)C(=O)O
150 to 153 °C
CC1(C)CCCN(CCCCOc2ccc(C(C)(C)C)cc2)C1.O=C(O)C(=O)O
140 to 142 °C
CC(C)(C)c1ccc(OCCCCCCN2CCCCC2)cc1.O=C(O)C(=O)O
156 to 158 °C
CC(C)(C)c1ccc(OCCCCCN2CCCCCC2)cc1.O=C(O)C(=O)O
151 to 153 °C
CC(C)(C)c1ccc(OCCCN2CCCC2)cc1.O=C(O)C(=O)O
147 to 149 °C

# input Provide one value: measured melting point of CC1CC(C)CN(CCCCCCOc2ccc(C(C)(C)C)cc2)C1.O=C(O)C(=O)O (stereo not drawn)
# output 143 to 145 °C

# input Provide one value: measured melting point of CC1CC(C)CN(CCCOc2ccc(C(C)(C)C)cc2)C1.O=C(O)C(=O)O (stereo not drawn)
# output 143 to 145 °C

# input Provide one value: measured melting point of CC1(C)CCCN(CCCOc2ccc(C(C)(C)C)cc2)C1.O=C(O)C(=O)O
# output 183 to 186 °C
